Just for reference, patent US20010055756A1 is where these values come from.

System: HCV NS5B polymerase
MEASUREMENT_PROTOCOL: Testing of GTP analogs in the NS5B de novo initiation reaction with RNA template 24-1
Type: biochemical, hepatitis C virus
CONDITION_SET: analog at 500 μM added to reactions with 100 μM or 500 μM GTP; 5 nM NS5B, 10 nM template 24-1, 2.5 h
PARAMETER: effect on de novo initiation reaction (fold stimulation relative to GTP alone)

[[record]]
compound = "CC(OP(=O)(O)OP(=O)(O)OP(=O)(O)OC[C@H]1O[C@@H](n2cnc3c(=O)[nH]c(N)nc32)[C@H](O)[C@@H]1O)c1ccccc1[N+](=O)[O-] (some centres unmarked) [caged-GTP]"
assay_system = "HCV NS5B polymerase"
data_value = "stimulating"

[[record]]
compound = "Nc1nc2c(ncn2[C@@H]2O[C@H](COP(=O)(O)O)[C@@H](O)[C@H]2O)c(=O)[nH]1 [GMP]"
assay_system = "HCV NS5B polymerase"
data_value = "stimulating"

